Parameter log2 (Sample B/Sample A): see the listing below.
Molecular target: T1, native human ESRRG protein (Estrogen-receptor related receptor gamma) (human, UniProt P62508 229-458, limits assumed)
T1 construct: the screened protein is called 'native human ESRRG protein'; also called ESSRG; ERRγ
T1 sequence (looked up): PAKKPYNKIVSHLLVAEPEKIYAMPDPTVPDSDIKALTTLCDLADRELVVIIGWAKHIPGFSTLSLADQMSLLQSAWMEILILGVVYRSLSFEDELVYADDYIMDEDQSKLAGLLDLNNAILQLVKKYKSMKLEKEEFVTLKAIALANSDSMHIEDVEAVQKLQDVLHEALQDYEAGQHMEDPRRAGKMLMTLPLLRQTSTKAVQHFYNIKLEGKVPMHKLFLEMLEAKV
Test: peptide microarray, Iteration 1; bound ESRRG detected with fluorescent anti-ESRRG mAb
Protocol: Screening was carried out typically by hybridization of the protein (1 μg/mL) against the array for 1 h at 4° C.; detection of bound protein was carried out using a fluorescently labeled anti-ESRRG mAb. (Direct labeling of ESRRG and alternative detection strategies are equally valid). […]
Where no end group is shown, it is not given here.

{"columns": ["Binder", "log2 (Sample B/Sample A)"],
 "data": [
  ["Ac-ANNVSLLH", 4.87],
  ["Ac-AANNYLLL", 6.78],
  ["Ac-AIRLHLMG", 5.07],
  ["Ac-NSLLKHLL", 7.65],
  ["Ac-RKALVGKY", 4.95],
  ["Ac-NSLRSHLL", 6.34],
  ["Ac-ANNVKLLH", 5.04],
  ["Ac-ANNSLLLH", 6.51],
  ["Ac-ANNIQLLH", 8.57],
  ["Ac-AANYILLL", 7.19],
  ["Ac-ANNSRLLH", 5.54],
  ["Ac-AIRVHLMG", 5.87],
  ["Ac-ANNLSLLH", 5.82],
  ["Ac-AANMYLLL", 5.95],
  ["Ac-AIRGALMG", 5.48],
  ["Ac-ANNVLLLH", 4.92]
]}

The reported measurements were obtained from patent US20130053541A1.
